# System: PC3 prostate cancer cell line
# assay notes: Live [Ca2+]i imaging (Fluo4/FuraRed ratio) after addition of Wnt ligand
# Assay type: cell-based
# condition parameters: PC3 cells, Wnt peptide 100 ng/ml
parameter measured: rise and fall time of [Ca2+]i release

- molecule: "Wnt5A: Recombinant Wnt peptide purchased from R&D systems (protein, UniProt P41221 62-380, looked up) Protein Wnt-5a: IIGAQPLCSQLAGLSQGQKKLCHLYQDHMQYIGEGAKTGIKECQYQFRHRRWNCSTVDNTSVFGRVMQIGSRETAFTYAVSAAGVVNAMSRACREGELSTCGCSRAARPKDLPRDWLWGGCGDNIDYGYRFAKEFVDARERERIHAKGSYESARILMNLHNNEAGRRTVYNLADVACKCHGVSGSCSLKTCWLQLADFRKVGDALKEKYDSAAAMRLNSRGKLVQVNSRFNSPTTQDLVYIDPSPDYCVRNESTGSLGTQGRLCNKTSEGMDGCELMCCGRGYDQFKTVQTERCHCKFHWCCYVKCKKCTEIVDQFVCK"
  result: "shortest"
- molecule: "Wnt3A: Recombinant Wnt peptide purchased from R&D systems (protein, UniProt P56704 19-352, looked up) Protein Wnt-3a: SYPIWWSLAVGPQYSSLGSQPILCASIPGLVPKQLRFCRNYVEIMPSVAEGIKIGIQECQHQFRGRRWNCTTVHDSLAIFGPVLDKATRESAFVHAIASAGVAFAVTRSCAEGTAAICGCSSRHQGSPGKGWKWGGCSEDIEFGGMVSREFADARENRPDARSAMNRHNNEAGRQAIASHMHLKCKCHGLSGSCEVKTCWWSQPDFRAIGDFLKDKYDSASEMVVEKHRESRGWVETLRPRYTYFKVPTERDLVYYEASPNFCEPNPETGSFGTRDRTCNVSSHGIDGCDLLCCGRGHNARAERRREKCRCVFHWCCYVSCQECTRVYDVHTCK"
  result: "shortest"
- molecule: "Wnt4: Recombinant Wnt peptide purchased from R&D systems (protein, UniProt P56705 23-351, looked up) Protein Wnt-4: SNWLYLAKLSSVGSISEEETCEKLKGLIQRQVQMCKRNLEVMDSVRRGAQLAIEECQYQFRNRRWNCSTLDSLPVFGKVVTQGTREAAFVYAISSAGVAFAVTRACSSGELEKCGCDRTVHGVSPQGFQWSGCSDNIAYGVAFSQSFVDVRERSKGASSSRALMNLHNNEAGRKAILTHMRVECKCHGVSGSCEVKTCWRAVPPFRQVGHALKEKFDGATEVEPRRVGSSRALVPRNAQFKPHTDEDLVYLEPSPDFCEQDMRSGVLGTRGRTCNKTSKAIDGCELLCCGRGFHTAQVELAERCSCKFHWCCFVKCRQCQRLVELHTCR"
  result: "slowest"
- molecule: "Wnt9B: Recombinant Wnt peptide purchased from R&D systems (protein, UniProt O14905 23-357, looked up) Protein Wnt-9b: SYFGLTGREVLTPFPGLGTAAAPAQGGAHLKQCDLLKLSRRQKQLCRREPGLAETLRDAAHLGLLECQFQFRHERWNCSLEGRMGLLKRGFKETAFLYAVSSAALTHTLARACSAGRMERCTCDDSPGLESRQAWQWGVCGDNLKYSTKFLSNFLGSKRGNKDLRARADAHNTHVGIKAVKSGLRTTCKCHGVSGSCAVRTCWKQLSPFRETGQVLKLRYDSAVKVSSATNEALGRLELWAPARQGSLTKGLAPRSGDLVYMEDSPSFCRPSKYSPGTAGRVCSREASCSSLCCGRGYDTQSRLVAFSCHCQVQWCCYVECQQCVQEELVYTCKH"
  result: "slowest"

Data provenance is patent US20160271157A1.
